Test system: dayflower
Assay: Test E preemergence
Type: in vivo, Commelina virginica
Conditions: 16 g ai/ha, scale 0 to 100 (0 no effect, 100 complete control)
recorded metric: Dayflower, VA plant response rating
Lab note: record just the number, no unit beside it.

Recorded Dayflower, VA plant response rating, per entry:
FC(F)(F)c1cnn(-c2ccccc2Oc2ncc(Cl)cn2)c1    0
Clc1cnc(Oc2ccccc2-n2cc(Br)cn2)nc1    0
N#Cc1cccc(Oc2ncc(Cl)cn2)c1-n1cc(C(F)(F)F)cn1    5

Give reported Dayflower, VA plant response rating value for N#Cc1cnn(-c2c(C#N)cccc2Oc2ncc(F)cn2)c1
0

* * *

System: sedge, umbrella
Assay: Test C flooded paddy test
Format: in vivo, Cyperus difformis
Details: Flood, 250 g ai/ha; scale 0 to 100 (0 no effect, 100 complete control), 13 to 15 days
recorded metric: Plant response rating, Sedge, Umbrella
Lab note: record just the number, no unit beside it.

Recorded Plant response rating, Sedge, Umbrella, per entry:
Clc1cnc(Oc2ccccc2-n2cc(Cl)cn2)nc1    70
CCOc1cnn(-c2c(C#N)cccc2Oc2ncc(F)cn2)c1    70
FC(F)c1cnn(-c2ccccc2Oc2ncc(Br)cn2)c1    90
Cc1ccc(Oc2ncc(Cl)cn2)c(-n2cc(Br)cn2)c1    75
FC(F)c1cccc(Oc2ncc(Cl)cn2)c1-n1cc(Br)cn1    95

Give reported Plant response rating, Sedge, Umbrella value for Fc1cccc(Oc2ncc(Cl)cn2)c1-n1cc(OCC(F)(F)F)cn1
95
